# protocol.summary: photostability under Suntest CPS illuminator (filtered xenon lamp), HPLC
# Format: physicochemical
# test.context: photodegradation of thin film on glass coverslips, simulated sunlight (xenon lamp), about 25 °C, 0-96 hours
Catalogue of Half-life values
Dear colleague, please return just the value in h, with no unit written.

Examples with their reported Half-life follow.
CCn1nnc(-c2ccc(CN3CCC(C(O)(c4ccc(C(F)(F)F)cc4)c4ccc(C(F)(F)F)cc4)CC3)cc2)n1 [A, reference compound]; 5.5
CCn1nnc(-c2ccc(C[N+]3([O-])CCC(C(O)(c4ccc(C(F)(F)F)cc4)c4ccc(C(F)(F)F)cc4)CC3)cc2)n1 (stereo not shown) [Compound 33]; 34.0
CCn1nnc(-c2ccc(CN3CCC(C(O)(c4ccc(C(F)(F)F)cc4)c4ccc(C(F)(F)F)cc4)CC3)cc2)n1 [Compound 7]; 23.0

Report Half-life, nothing else, for this compound: CCn1nnc(-c2ccc(C[N+]3([O-])CCC(C(O)(c4ccc(C(F)(F)F)cc4)c4ccc(C(F)(F)F)cc4)CC3)cc2)n1 (stereo not shown) [B, reference compound] 13.9
